Recorded IC50 by entry
target: adenosine A1 receptor (A1R) (Homo sapiens, UniProt P30542); construct: expressed in transfected cells; host or cells: CHO-K1; assay: Inhibition of the adenosine A1 receptor cAMP signaling pathway in CHO-K1/A1R cells (HTRF); type: cell-based; details: CHO-K1/A1R cells, cAMP, forskolin 10 μM, CPA 10 nM
Sequence (P30542 whole entry): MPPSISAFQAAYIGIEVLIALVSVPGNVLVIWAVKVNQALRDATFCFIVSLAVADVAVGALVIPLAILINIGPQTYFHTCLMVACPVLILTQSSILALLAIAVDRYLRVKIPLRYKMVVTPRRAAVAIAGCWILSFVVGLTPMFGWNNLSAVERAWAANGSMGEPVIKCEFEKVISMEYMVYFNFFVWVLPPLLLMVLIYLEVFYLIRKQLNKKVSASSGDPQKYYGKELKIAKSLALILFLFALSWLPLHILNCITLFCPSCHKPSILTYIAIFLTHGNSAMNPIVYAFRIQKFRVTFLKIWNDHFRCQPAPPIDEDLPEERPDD

- Molecule: "Cc1ccnc2c(F)cc(-c3nnc(N)nc3-c3ccccc3F)cc12"
  Unit abbrev: "nM"
  IC50: 1640
- Molecule: "[2H]C([2H])([2H])c1ncnc2ccc(-c3nnc(N)nc3-c3ccc(F)cc3)cc12"
  Unit abbrev: "nM"
  IC50: 876
- Molecule: "Cc1cc(-c2nnc(N)nc2-c2ccccc2)cc2cccnc12"
  Unit abbrev: "nM"
  IC50: 121
- Molecule: "Cc1ccnc2c(F)cc(-c3nnc(N)nc3-c3ccc(F)cc3)cc12"
  Unit abbrev: "nM"
  IC50: 617
- Molecule: "Nc1nnc(-c2cc(F)c3ncccc3c2)c(-c2ccccc2)n1"
  Unit abbrev: "nM"
  IC50: 133

----------
assay: Pharmacokinetics assay in mice; assay type: in vivo; settings: mouse, po; C57 mice (female), intragastric, 2 mg/kg, plasma; read-out: Apparent distribution volume Vz/F

- Compound: "Cc1ccnc2c(F)cc(-c3nnc(N)nc3-c3ccccc3F)cc12 [Example 31]"
  Unit abbrev: "L/kg"
  Vd/F: 16.7
- Compound: "Nc1nnc(-c2ccc3ncccc3c2)c(-c2ccccc2)n1 [Example 3]"
  Unit abbrev: "L/kg"
  Vd/F: 15.7
- Compound: "CCc1ccnc2ccc(-c3nnc(N)nc3-c3ccc(F)cc3)cc12 [Example 44]"
  Unit abbrev: "L/kg"
  Vd/F: 4.79
- Compound: "Cc1ccnc2ccc(-c3nnc(N)nc3-c3ccc(F)cc3)cc12 [Example 18]"
  Unit abbrev: "L/kg"
  Vd/F: 9.01
- Compound: "Nc1nnc(-c2cc(F)c3ncccc3c2)c(-c2ccccc2)n1 [Example 2]"
  Unit abbrev: "L/kg"
  Vd/F: 14.7
- Compound: "Cc1ncnc2ccc(-c3nnc(N)nc3-c3ccc(F)cc3)cc12 [Example 19]"
  Unit abbrev: "L/kg"
  Vd/F: 1.57
- Compound: "Cc1ccnc2ccc(-c3nnc(N)nc3-c3ccccc3F)cc12 [Example 17]"
  Unit abbrev: "L/kg"
  Vd/F: 15.3
- Compound: "Cc1ccnc2c(F)cc(-c3nnc(N)nc3-c3ccc(F)cc3)cc12 [Example 20]"
  Unit abbrev: "L/kg"
  Vd/F: 3.05

----------
Below, each entry is listed with its recorded IC50 ratio (A3R/A2aR).
molecular target: adenosine A3 receptor (A3R) (Homo sapiens, UniProt P0DMS8); construct: expressed in transfected cells; host or cells: CHO-K1; assay: Inhibition of the adenosine A3 receptor cAMP signaling pathway in CHO-K1/A3R cells (HTRF); format: cell-based; details: selectivity A3R over A2aR
Sequence (P0DMS8 whole entry): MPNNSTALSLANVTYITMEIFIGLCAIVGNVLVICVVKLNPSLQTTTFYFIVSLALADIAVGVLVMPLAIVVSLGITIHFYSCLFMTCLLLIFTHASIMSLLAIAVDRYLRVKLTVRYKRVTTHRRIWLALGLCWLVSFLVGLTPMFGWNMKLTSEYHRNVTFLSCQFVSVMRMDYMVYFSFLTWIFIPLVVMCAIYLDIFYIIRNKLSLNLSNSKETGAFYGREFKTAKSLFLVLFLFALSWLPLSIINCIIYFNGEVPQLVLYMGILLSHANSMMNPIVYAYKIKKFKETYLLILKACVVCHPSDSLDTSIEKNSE

- Compound: "Nc1nnc(-c2ccc3ncccc3c2)c(-c2ccccc2)n1 [Example 3]"
  Experimental target: "adenosine A3 receptor (A3R) (Homo sapiens, UniProt P0DMS8)"
  IC50 ratio (A3R/A2aR): ">10^4"
- Compound: "Cc1ncnc2c(F)cc(-c3nnc(N)nc3-c3ccc(F)cc3)cc12 [Example 50]"
  Experimental target: "adenosine A3 receptor (A3R) (Homo sapiens, UniProt P0DMS8)"
  IC50 ratio (A3R/A2aR): ">10^3"
- Compound: "CCc1ccnc2ccc(-c3nnc(N)nc3-c3ccc(F)cc3)cc12 [Example 44]"
  Experimental target: "adenosine A3 receptor (A3R) (Homo sapiens, UniProt P0DMS8)"
  IC50 ratio (A3R/A2aR): ">10^4"
- Compound: "Cc1ccnc2c(F)cc(-c3nnc(N)nc3-c3ccccc3)cc12 [Example 16]"
  Experimental target: "adenosine A3 receptor (A3R) (Homo sapiens, UniProt P0DMS8)"
  IC50 ratio (A3R/A2aR): ">10^4"
- Compound: "Cc1ncnc2ccc(-c3nnc(N)nc3-c3ccccc3)cc12 [Example 15]"
  Experimental target: "adenosine A3 receptor (A3R) (Homo sapiens, UniProt P0DMS8)"
  IC50 ratio (A3R/A2aR): ">10^4"
- Compound: "Cc1ccnc2c(F)cc(-c3nnc(N)nc3-c3ccc(F)cc3)cc12 [Example 20]"
  Experimental target: "adenosine A3 receptor (A3R) (Homo sapiens, UniProt P0DMS8)"
  IC50 ratio (A3R/A2aR): ">10^3"
- Compound: "Cc1ccnc2ccc(-c3nnc(N)nc3-c3ccc(F)cc3)cc12 [Example 18]"
  Experimental target: "adenosine A3 receptor (A3R) (Homo sapiens, UniProt P0DMS8)"
  IC50 ratio (A3R/A2aR): ">10^4"

----------
Target: adenosine A2a receptor (A2aR) (Homo sapiens, UniProt P29274)
Construct: expressed in transfected cells; host or cells: CHO-K1
Sequence (P29274 whole entry): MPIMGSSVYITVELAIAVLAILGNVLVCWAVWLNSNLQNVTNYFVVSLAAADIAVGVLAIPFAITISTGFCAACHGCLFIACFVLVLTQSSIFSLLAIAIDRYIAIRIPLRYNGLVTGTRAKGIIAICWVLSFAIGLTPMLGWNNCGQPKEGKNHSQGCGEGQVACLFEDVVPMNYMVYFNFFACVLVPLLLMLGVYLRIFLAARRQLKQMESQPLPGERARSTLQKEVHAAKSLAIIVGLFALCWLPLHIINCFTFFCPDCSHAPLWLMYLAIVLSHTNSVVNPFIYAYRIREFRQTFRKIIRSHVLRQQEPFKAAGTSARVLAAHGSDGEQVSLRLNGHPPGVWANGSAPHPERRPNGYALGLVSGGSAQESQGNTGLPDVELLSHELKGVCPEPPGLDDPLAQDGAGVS
Test: Inhibition of the adenosine A2a receptor cAMP signaling pathway in CHO-K1/A2aR cells (HTRF)
Assay type: cell-based
Settings: CHO-K1/A2aR cells, cAMP, NECA 20 nM; Table 1
Source text: Determination of the inhibition activity of the compounds of the present invention on the adenosine A2a receptor (A2aR) cAMP signaling pathway, the adenosine A2b receptor (A2bR) cAMP signaling pathway, the adenosine A1 receptor (A1R) cAMP signaling pathway and the adenosine A3 receptor (A3R) cAMP signaling pathway. […]
Measured parameter: log10(IC50) (log10 of the value in nM)

- Molecule: "Cc1ccnc2ccc(-c3nnc(N)nc3-c3ccccc3)cc12"
  log10(IC50): -1.00
- Molecule: "COc1cc(-c2nnc(N)nc2-c2ccccc2)cc2cccnc12"
  log10(IC50): 0.18
- Molecule: "Cc1cc(-c2nnc(N)nc2-c2cccs2)cc2cccnc12"
  log10(IC50): 0.49
- Molecule: "COc1ccnc2ccc(-c3nnc(N)nc3-c3ccccc3)cc12"
  log10(IC50): -0.40
- Molecule: "Nc1nnc(-c2ccc3ncc(F)cc3c2)c(-c2ccccc2)n1"
  log10(IC50): -0.05

----------
assay: Pharmacokinetics assay in mice; assay type: in vivo; details: mouse, po; C57 mice (female), intragastric, 2 mg/kg, plasma; read-out: Area under curve AUC
// reported AUC per item
Measured parameter: AUC (ng·h/mL)

- Compound: "Cc1ccnc2ccc(-c3nnc(N)nc3-c3ccc(F)cc3)cc12 [Example 18]"
  Measured parameter: "AUC"
  Endpoint result: 495
- Compound: "CCc1ccnc2ccc(-c3nnc(N)nc3-c3ccc(F)cc3)cc12 [Example 44]"
  Measured parameter: "AUC"
  Endpoint result: 501
- Compound: "Nc1nnc(-c2ccc3ncccc3c2)c(-c2ccccc2)n1 [Example 3]"
  Measured parameter: "AUC"
  Endpoint result: 419
- Compound: "Cc1ccnc2c(F)cc(-c3nnc(N)nc3-c3ccc(F)cc3)cc12 [Example 20]"
  Measured parameter: "AUC"
  Endpoint result: 1170
- Compound: "Cc1ccnc2ccc(-c3nnc(N)nc3-c3ccccc3F)cc12 [Example 17]"
  Measured parameter: "AUC"
  Endpoint result: 204
- Compound: "Nc1nnc(-c2cc(F)c3ncccc3c2)c(-c2ccccc2)n1 [Example 2]"
  Measured parameter: "AUC"
  Endpoint result: 412
- Compound: "Cc1ccnc2c(F)cc(-c3nnc(N)nc3-c3ccccc3F)cc12 [Example 31]"
  Measured parameter: "AUC"
  Endpoint result: 339
- Compound: "Cc1ncnc2ccc(-c3nnc(N)nc3-c3ccc(F)cc3)cc12 [Example 19]"
  Measured parameter: "AUC"
  Endpoint result: 5030

----------
molecular target: adenosine A2a receptor (A2aR) (Homo sapiens, UniProt P29274); construct: expressed in transfected cells; host or cells: CHO-K1; test: Inhibition of the adenosine A2a receptor cAMP signaling pathway in CHO-K1/A2aR cells (HTRF); type: cell-based; conditions: CHO-K1/A2aR cells, cAMP, NECA 20 nM; Table 1

- Molecule: "CCc1ccnc2c(F)cc(-c3nnc(N)nc3-c3ccccc3)cc12"
  IC50, nM: 1.6
- Molecule: "Cc1cc(-c2nnc(N)nc2-c2ccco2)cc2cccnc12"
  IC50, nM: 1.3
- Molecule: "Cc1ncnc2ccc(-c3nnc(N)nc3-c3ccccc3)cc12"
  IC50, nM: 0.1
- Molecule: "Cc1ccnc2ccc(-c3nnc(N)nc3-c3ccccc3F)cc12"
  IC50, nM: 0.5
- Molecule: "Cc1cc(-c2nnc(N)nc2-c2ccc(F)cc2)cc2cccnc12"
  IC50, nM: 3.6
- Molecule: "Nc1nnc(-c2cc(F)c3ncccc3c2)c(-c2cccc(F)c2)n1"
  IC50, nM: 1.8
- Molecule: "Nc1nnc(-c2ccc3ncccc3c2)c(-c2ccccc2)n1"
  IC50, nM: 0.7
- Molecule: "Cc1ccnc2c(F)cc(-c3nnc(N)nc3-c3ccccc3F)cc12"
  IC50, nM: 3.8
- Molecule: "Cc1cc(-c2nnc(N)nc2-c2ccccc2)cc2cccnc12"
  IC50, nM: 0.5
- Molecule: "Cc1ccnc2ccc(-c3nnc(N)nc3-c3ccc(F)cc3)cc12"
  IC50, nM: 0.2
